Data credit: PubChem BioAssay

method description: CRL1545 cell growth, single agent and combined, cisplatin and BGB IC20 combos (AID 1671464);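 note: cells exposed to compound for 96 hours before readout; 0% = vehicle DMSO and 100% = high DMSO killing control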
test settings: CRL1545 osteosarcoma cells, measured here: with BGB IC20 combination, at 0.5 µM, stronger effect = higher value
# inhibition per entry
observable: inhibition (%)

compound=CC(C)C(=O)SCCCCCCC(=O)Nc1nc(-c2ccccc2)cs1 unit_abbrev=% recorded_value=24.9
compound=C[n+]1ccc(-c2c3nc(c(-c4cc[n+](C)cc4)c4ccc([nH]4)c(-c4cc[n+](C)cc4)c4nc(c(-c5cc[n+](C)cc5)c5ccc2[nH]5)C=C4)C=C3)cc1 unit_abbrev=% recorded_value=-36.3
compound="C=C(C)C1CCC2(C(=O)O)CCC3(C)C(CCC4C5(C)CCC(O)C(C)(C)C5CCC43C)C12 (stereo not given)" unit_abbrev=% recorded_value=-13.1
compound=Nc1nc(NC2CC2)cc(-c2cccc(Cl)c2Cl)n1 unit_abbrev=% recorded_value=-16.7
compound=C=C1C(=O)O[C@@H]2C=C(C)CCC=C(C)CC[C@@H]12 unit_abbrev=% recorded_value=-16.3
compound="CC1OC(n2cc(F)c(=O)[nH]c2=O)C(O)C1O (stereo not given)" unit_abbrev=% recorded_value=-21.9
compound="N#Cc1ccc(OC2CCC(NC(=O)CCSc3nc4ccccc4c(=O)[nH]3)CC2)cc1 (stereo not given)" unit_abbrev=% recorded_value=-19.6
compound=Cc1cc(C#N)cc(C)c1Oc1nc(Nc2ccc(C#N)cc2)nc(N)c1Br unit_abbrev=% recorded_value=4.81
compound=Cc1c(Br)cc(NCC(=O)N/N=C/c2cc([N+](=O)[O-])ccc2O)cc1Br unit_abbrev=% recorded_value=-10.5
compound="COc1cccc2c1C(=O)c1c(O)c3c(c(O)c1C2=O)CC(O)(C(=O)CO)CC3OC1CC(N)C(OC2CCCCO2)C(C)O1 (stereo not given)" unit_abbrev=% recorded_value=85.6
compound="C=C1CCC(O)CC1=CC=C1CCCC2(C)C1CCC2C(C)C=CC(C)C(C)C (stereo not given)" unit_abbrev=% recorded_value=16.4
compound=O=C(O)c1cc2cccc([N+](=O)[O-])c2[nH]1 unit_abbrev=% recorded_value=-10
compound=Cc1ccc([N+](=O)[O-])cc1S(=O)(=O)N(C)/N=C\c1cnc2ccc(Br)cn12 unit_abbrev=% recorded_value=98.1
compound="CC1OC(CC(=O)O)CC2=C1C(=O)c1c(O)cccc1C2=O (stereo not given)" unit_abbrev=% recorded_value=99.9
compound=O=c1[nH]c(=S)[nH]c2nc(-c3ccccc3)c(-c3ccccc3)nc12 unit_abbrev=% recorded_value=-18.6
compound="Nc1ncn(C2OC(CO)C(O)C2O)c(=O)n1 (stereo not given)" unit_abbrev=% recorded_value=16.1
compound=O=C(CCCCCCC(=O)NO)NO unit_abbrev=% recorded_value=-55.7
compound=O=C1N=c2ccccc2=C1c1c(O)[nH]c2ccccc12 unit_abbrev=% recorded_value=-4.11
compound="C=CC1=C(C)C2=CC3=NC(=C(CC(=O)O)C4=NC(=C(C)C4=C(O)O)C=c4[nH]c(c(C)c4CC)=CC1=N2)C(CCC(=O)O)C3C (stereo not given)" unit_abbrev=% recorded_value=2.58
compound="CC(Oc1cc(-c2cnn(C3CCNCC3)c2)cnc1N)c1c(Cl)ccc(F)c1Cl (stereo not given)" unit_abbrev=% recorded_value=-14.1
compound=O=c1cc(-c2ccc(O)cc2)[nH]c(=S)[nH]1 unit_abbrev=% recorded_value=-19.4
compound="CCC(Sc1nnc2c3ccccc3n(CC)c2n1)C(=O)Nc1ccccc1OC (stereo not given)" unit_abbrev=% recorded_value=3.68
compound=Cn1cnc2[nH]c(=O)[nH]c(=O)c21 unit_abbrev=% recorded_value=4.76
compound="CC(C=CC(=O)NO)=CC(C)C(=O)c1ccc(N(C)C)cc1 (stereo not given)" unit_abbrev=% recorded_value=86.4
compound="O=c1[nH]cnc2c1ncn2C1CCC(CO)O1 (stereo not given)" unit_abbrev=% recorded_value=0.279
compound="C#CCC(CCCCCC)C(=O)O (stereo not given)" unit_abbrev=% recorded_value=-43.7
compound=Cc1cc(C)c(Nc2ccnc(Nc3ccc(C#N)cc3)n2)c(C)c1 unit_abbrev=% recorded_value=-10.9
compound="NC(=O)c1cccc2cn(-c3ccc(C4CCCNC4)cc3)nc12 (stereo not given)" unit_abbrev=% recorded_value=-55.3
compound=O=C1C(=Cc2cccnc2)C(=O)c2ccccc21 unit_abbrev=% recorded_value=-10.3
compound="O=C(CCSc1nc2ccccc2c(=O)[nH]1)NC1CCC(c2nnc(-c3ccccc3)o2)CC1 (stereo not given)" unit_abbrev=% recorded_value=-27
compound=COc1ccc(-c2nc(-c3cc(C(F)(F)F)cc(C(F)(F)F)c3)n(Cc3ccc(C(N)=O)cc3)c2-c2ccc(OC)cc2)cc1 unit_abbrev=% recorded_value=-22.6
compound="CC(C)(O)[C@H]1CC[C@@](C)(C2[C@@H](O)C[C@@]3(C)[C@@H]4C[C@H](O)C5C(C)(C)[C@@H](O)CCC56CC46CC[C@]23C)O1 (stereo not given in full)" unit_abbrev=% recorded_value=-5.47
compound="CON=C1CN(c2nc3c(cc2F)c(=O)c(C(=O)O)cn3C2CC2)CC1CN (stereo not given)" unit_abbrev=% recorded_value=-14.3
compound="O=c1ccn(C2CC(O)C(CO)O2)c(=O)[nH]1 (stereo not given)" unit_abbrev=% recorded_value=-5.72
compound="Cc1cn(C2CC(O)C(COP(=O)(O)OP(=O)(O)OP(=O)(O)O)O2)c(=O)[nH]c1=O (stereo not given)" unit_abbrev=% recorded_value=17.1
compound=C[C@@H]1O[C@@H](O[C@@H]2[C@@H](O)[C@H](OCCc3ccc(O)c(O)c3)O[C@H](CO)[C@H]2OC(=O)C=Cc2ccc(O)c(O)c2)[C@H](O)[C@H](O)[C@H]1O unit_abbrev=% recorded_value=-11.9
compound=O=C(CCCCCCC(=O)Nc1ccc(I)cc1)NO unit_abbrev=% recorded_value=39.3
compound="CC1CN(c2c(F)c(N)c3c(=O)c(C(=O)O)cn(C4CC4)c3c2F)CC(C)N1 (stereo not given)" unit_abbrev=% recorded_value=14.7
compound="CCC(C)C(=O)OC1CC(C)C=C2C=CC(C)C(CCC3CC(O)CC(=O)O3)C21 (stereo not given)" unit_abbrev=% recorded_value=12.6
compound="COc1cccc2c1C(=O)c1c(O)c3c(c(O)c1C2=O)CC(O)(C(C)=O)CC3OC1CC(N)C(O)C(C)O1 (stereo not given)" unit_abbrev=% recorded_value=99.1
